Sourced from patent US20140066465A1

- System: sensitive cell lines
- Method: MTT cell survival assay, single drug
- Type: cell-based
- Experimental Setup: single drug treatment
pIC50: −log10 of the molar value.
Recorded Metric: pIC50

Query string: State the recorded pIC50 for this entry: `C#Cc1cccc(Nc2ncnc3cc(OCCOC)c(OCCOC)cc23)c1`
Result string: ~7.70
